EXPERIMENTAL_TARGET: T1, biotinylated CD3 epsilon:delta heterodimer protein (Amsbio AMS.CDD-H52WO) (Homo sapiens (Human), UniProt P07766 23-126; P04234 22-105)
T1 construct: also called CD3 heterodimer
ASSAY_TEXT: BLI (Octet), CD3 on SA sensor, Fab analyte;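 note: biolayer interferometry with biotinylated CD3 epsilon:delta captured on streptavidin sensors, Fab analyte at several concentrations up to 300 nM, 100 s association then 300 s dissociation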
Entries and their pKd
Interpret pKd as the negative base-10 log of the concentration measured in mol/L.

BINDER: huSP34.3.4 Fab-HF (Fab, V domains shown, also called HC3+LC4) VH: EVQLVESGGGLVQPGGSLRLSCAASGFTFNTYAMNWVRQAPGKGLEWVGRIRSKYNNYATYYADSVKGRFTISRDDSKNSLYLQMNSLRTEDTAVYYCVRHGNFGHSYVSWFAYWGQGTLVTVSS VL: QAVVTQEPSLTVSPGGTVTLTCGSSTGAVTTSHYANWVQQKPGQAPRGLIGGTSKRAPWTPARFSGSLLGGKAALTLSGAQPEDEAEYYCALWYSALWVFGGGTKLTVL
pKd: 7.07
--
BINDER: huSP34.6.4 Fab-HF (Fab, V domains shown, also called HC6+LC4) VH: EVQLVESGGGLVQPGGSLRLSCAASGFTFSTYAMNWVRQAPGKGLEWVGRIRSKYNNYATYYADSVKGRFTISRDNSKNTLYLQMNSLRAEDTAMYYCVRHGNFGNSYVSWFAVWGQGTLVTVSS VL: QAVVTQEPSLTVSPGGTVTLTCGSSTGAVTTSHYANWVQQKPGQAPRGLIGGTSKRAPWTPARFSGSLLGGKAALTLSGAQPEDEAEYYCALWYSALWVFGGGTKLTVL
pKd: 6.24
--
BINDER: huSP34.8.4 Fab-HF (Fab, V domains shown, also called HC8+LC4) VH: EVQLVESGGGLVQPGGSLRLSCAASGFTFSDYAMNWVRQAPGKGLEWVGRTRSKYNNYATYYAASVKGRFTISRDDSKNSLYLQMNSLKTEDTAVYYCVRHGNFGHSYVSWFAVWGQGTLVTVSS VL: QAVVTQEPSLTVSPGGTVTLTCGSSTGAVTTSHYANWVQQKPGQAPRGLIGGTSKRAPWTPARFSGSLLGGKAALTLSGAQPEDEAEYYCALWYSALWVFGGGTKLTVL
pKd: 6.52
--
BINDER: huSP34.5.6 Fab-HF (Fab, V domains shown, also called HC5+LC6) VH: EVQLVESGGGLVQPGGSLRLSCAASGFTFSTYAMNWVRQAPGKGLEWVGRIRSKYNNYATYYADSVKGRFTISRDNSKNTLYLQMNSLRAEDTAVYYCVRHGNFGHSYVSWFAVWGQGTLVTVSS VL: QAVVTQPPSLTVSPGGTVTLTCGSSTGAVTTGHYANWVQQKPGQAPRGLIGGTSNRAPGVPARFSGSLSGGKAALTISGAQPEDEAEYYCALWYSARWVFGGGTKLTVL
pKd: 6.57

Now let's try a different one.
**Query** Look up pKd of huSP34.4.6 Fab-HF (Fab, V domains shown, also called HC4+LC6) VH: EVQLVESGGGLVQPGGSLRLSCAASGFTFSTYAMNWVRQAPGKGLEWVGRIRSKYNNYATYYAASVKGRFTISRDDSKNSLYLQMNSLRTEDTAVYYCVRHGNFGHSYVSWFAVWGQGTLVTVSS VL: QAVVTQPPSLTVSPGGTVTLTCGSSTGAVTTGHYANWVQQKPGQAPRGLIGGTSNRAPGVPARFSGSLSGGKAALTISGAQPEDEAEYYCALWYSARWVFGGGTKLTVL and report it.
**Result** 7.64
